Tested on: ATP;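 also: ATP exposure 15 min at 22 °C before imaging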
Measurement Protocol: switch fluorescence ratio, 500 uM ATP over buffer (Cy3 cluster intensity, sum of 5 cycles each) (fold (ratio)); higher = stronger signal-on switching upon ATP binding; sequences stand for … in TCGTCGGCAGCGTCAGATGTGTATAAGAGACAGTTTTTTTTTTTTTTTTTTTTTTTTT…TC
Reported Conditions: aptamer strand: ATP DNA aptamer (quencher-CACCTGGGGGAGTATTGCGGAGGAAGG + anchor), 100 nM annealed; ATP concentration: 500 uM
Measured switch fluorescence ratio of individual entries
Measurement Type: switch fluorescence ratio

INSERT INTO measurements (sequence_content, measured) VALUES
  ('CCGTGTATGT', 1.05),
  ('CAATTGCGGG', 0.988),
  ('ATGAATACAA', 1.01),
  ('TTTTCATTCT', 1.01),
  ('GGTAATTGTG', 0.987),
  ('TGGGGCAATT', 1.1),
  ('AATTTAGGGT', 1.01),
  ('GCAGCTGGTA', 1.05),
  ('GGGGGGTCGT', 1),
  ('CTAAATTCGT', 0.987),
  ('TGGGATATCT', 1),
  ('CTTAGTATAT', 1),
  ('CCCGAATCCT', 1.06),
  ('GAATTATGGC', 1.01),
  ('AGGGGAAGAG', 0.994),
  ('TCTGAGACGC', 1.05),
  ('TCGTTAGATG', 0.989),
  ('TCGGGGGGGC', 1.01),
  ('GTGAGGCGGT', 0.968),
  ('GAGGGGTAAG', 1),
  ('GGATAGTGCT', 0.993),
  ('CTCTGGGAGG', 0.995),
  ('GAAAACAGTT', 0.995),
  ('CTGGTGTGGC', 0.982),
  ('GTTATAGTGG', 0.981),
  ('CGAAAATCTT', 0.995),
  ('CGCCGGGTTG', 0.984),
  ('AGCGAAGCTG', 1.01),
  ('CATGTTACGG', 1.05),
  ('CTAGACGTTT', 1.01),
  ('CCGGGTGGG', 1.01),
  ('AAGGACAAGG', 0.999),
  ('ATTTCGTTCG', 0.977),
  ('TGCGGGGGTC', 1.04),
  ('TACGGTAGCT', 1.12),
  ('GTGTAACAGA', 1),
  ('GTTGCACTTT', 0.983),
  ('GTCAACTGAG', 1.05),
  ('ACATGGGATT', 1.01),
  ('GAGAAGGGAC', 1.03),
  ('GTAGTGAGGG', 0.982),
  ('TAGAAGGTTG', 0.972),
  ('TACAGGACTC', 1.09),
  ('GGGGGGGTGC', 1.02),
  ('CGTGGCGGAT', 0.971),
  ('TGGCATTCGT', 0.976),
  ('CGGGGTCTGG', 0.978),
  ('TTCTTCGTTA', 1.03),
  ('CGTTTCGTGT', 0.972),
  ('CACAGTGGTA', 1.03),
  ('ATTGTACAGG', 1.03),
  ('ATGATCTGCT', 0.946),
  ('TTTTCAATCG', 1.01),
  ('GCTGTAGACT', 0.992),
  ('GATTTTGGCT', 0.997),
  ('AGGCGAAGGG', 0.993),
  ('AGGAAATAGG', 0.963),
  ('CGGCTATTAA', 1.04),
  ('GTGTGGTGCA', 0.98),
  ('CAGCACGCGC', 1.06),
  ('GCGTAAGTG', 0.986),
  ('GAGTTATGGT', 1.02),
  ('AATCGGGGAT', 1),
  ('ATGAATTTTA', 1),
  ('TCCTCAGCGT', 3),
  ('TGGGGCAAAT', 1.01),
  ('GCTAATATTA', 1.03),
  ('GCCGGGCAGC', 0.98),
  ('GCTTTTTGTA', 0.981),
  ('AAGCTTTTAT', 0.993),
  ('TTTGGATGCT', 1.05),
  ('TTGTGCGAAA', 1.01),
  ('ACAGTCGTAG', 1),
  ('GGGGAAGCGG', 0.991),
  ('CGGGGCGGAT', 1.04),
  ('CCACGAGATA', 1.12),
  ('AGAAGATTGT', 0.989),
  ('CTTGAGACGG', 1.01),
  ('TCAGTTTACT', 0.998),
  ('TAATGATGAG', 0.987),
  ('AACCTGCTAA', 1.06),
  ('CAGGTAGGGG', 0.951);
